pIC50: −log10 of the molar value.
Compiled pIC50 measurements on Interstitial collagenase (Homo sapiens, UniProt P03956) taken from the literature.
Quick rule for you: pIC50 at 4 or higher means Y, lower means N.

| compound | group |
| --- | --- |
| C[C@H](C(=O)NO)N1CC[C@@](C)(c2ccc(C(F)(F)F)cc2)C1=O | Y |
| NCCCCCC(=O)N1C[C@H](NS(=O)(=O)c2ccc(Oc3ccccc3)cc2)[C@@H](S)C1 (relative stereo) | Y |
| C[C@H](C(=O)NO)N1CC[C@@](C)(c2cccc(C(F)(F)F)c2)C1=O | Y |
| C[C@H](C(=O)NO)N1CC[C@](C)(c2ccc(-c3ccccc3)cc2)C1=O | N |
| O=C(COC(=O)c1ccccc1Sc1ccc([N+](=O)[O-])cc1)c1ccc(-c2ccccc2)cc1 | Y |
| NCCCCCC(=O)N1C[C@H](NS(=O)(=O)c2ccc(Oc3ccccc3)cc2)[C@@H](O)C1 (relative stereo) | N |
| O=C(CCCNC(=O)c1cccc(C(=O)NCCCC(=O)NCCC[C@@H](NS(=O)(=O)c2ccc(OCc3cc(Br)cc(Br)c3)cc2)C(=O)NO)c1)NCCC[C@@H](NS(=O)(=O)c1ccc(OCc2cc(Br)cc(Br)c2)cc1)C(=O)NO | N |
